- Test: Pharmacokinetic study after oral administration to rats
- Condition Context: rat, in vivo, 10 mg/kg (Compound 1 basis), oral suspension
Experimental Readout: Cmax

Q) Identify measured Cmax associated with CCn1c(=O)c(-c2cc(NC(=O)Nc3ccccc3)c(F)cc2Br)cc2cnc(NC)cc21
A) 20.2 ng/mL

* * *

- Test: Pharmacokinetic study after oral administration to rats
- Condition Context: rat, in vivo, 10 mg/kg (Compound 1 basis), oral suspension
Experimental Readout: AUC(0-t) (ng·h/mL)
Please reply with the bare figure in ng·h/mL and do not write the unit itself.

Q) Identify measured AUC(0-t) associated with CCn1c(=O)c(-c2cc(NC(=O)Nc3ccccc3)c(F)cc2Br)cc2cnc(NC)cc21
A) 111
